Target: T1, EsCas13d, nuclease-dead (Eubacterium siraeum, UniProt B0MS50, R295A;H300A;R849A;H854A)
T1 sequence: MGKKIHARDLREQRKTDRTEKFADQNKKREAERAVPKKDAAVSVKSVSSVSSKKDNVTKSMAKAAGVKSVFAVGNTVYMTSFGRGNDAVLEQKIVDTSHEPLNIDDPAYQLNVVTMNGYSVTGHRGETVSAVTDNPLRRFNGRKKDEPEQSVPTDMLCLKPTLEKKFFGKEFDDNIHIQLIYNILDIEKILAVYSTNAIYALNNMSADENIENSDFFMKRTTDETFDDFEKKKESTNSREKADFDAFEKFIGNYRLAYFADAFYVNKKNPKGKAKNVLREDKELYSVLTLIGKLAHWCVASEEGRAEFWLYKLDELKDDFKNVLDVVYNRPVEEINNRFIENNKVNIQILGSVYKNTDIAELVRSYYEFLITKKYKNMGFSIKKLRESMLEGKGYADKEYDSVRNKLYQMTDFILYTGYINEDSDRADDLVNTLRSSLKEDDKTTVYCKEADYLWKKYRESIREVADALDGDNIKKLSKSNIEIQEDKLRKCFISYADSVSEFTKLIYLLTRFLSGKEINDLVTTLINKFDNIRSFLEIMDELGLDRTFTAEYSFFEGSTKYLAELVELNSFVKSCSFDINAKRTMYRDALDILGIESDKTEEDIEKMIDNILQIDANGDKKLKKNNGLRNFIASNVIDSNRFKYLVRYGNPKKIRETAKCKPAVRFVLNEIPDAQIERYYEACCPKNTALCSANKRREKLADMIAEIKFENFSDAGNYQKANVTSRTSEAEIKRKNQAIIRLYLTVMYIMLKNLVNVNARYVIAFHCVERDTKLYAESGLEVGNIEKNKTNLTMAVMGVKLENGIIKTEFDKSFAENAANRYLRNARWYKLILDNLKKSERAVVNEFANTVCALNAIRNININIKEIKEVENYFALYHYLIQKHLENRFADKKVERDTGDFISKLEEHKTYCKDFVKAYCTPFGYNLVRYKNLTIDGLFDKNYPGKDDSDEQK
Assay: crRNA (strand 1, pre-loaded); Mg2+; 40 mM Tris-HCl pH 7.5, 150 mM NaCl, 6 mM MgCl2, 1 mM DTT, 0.1% Tween-20, 0.2 mg/ml BSA; 25 C; 10 min per concentration, then washed
Details: tags: His6-TwinStrep-SUMO cleaved; N-terminal SNAP kept (SNAP-Surface 488); label: 3' end held by stalled T7 RNA polymerase
observable: pKd
The value called pKd is obtained by taking minus log10 of the concentration in mol/L.

Quick one: pKd for target 3 G3C,U8A (mixed) RNA 1: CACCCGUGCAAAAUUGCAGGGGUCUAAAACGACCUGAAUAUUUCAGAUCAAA RNA 2: GGGAAUGGAUCCACAUCUACGAAUUCGUUUUUGAUCUGAAAUAAUCAGCUCUGCAGAUCGGAAGAGCACACGU ?
7.20

Query target 1 insC 3' of 16,insA 3' of 7 (mixed) RNA 1: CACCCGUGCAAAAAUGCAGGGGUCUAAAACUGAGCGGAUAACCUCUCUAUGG RNA 2: GGGAAUGGAUCCACAUCUACGAAUUCGUACCAUAGACGAGGUUAUCACGCUCACCGAGAUCGGAAGAGCACACGU next
7.20

Query target 2 MT 5'PFS UAC 3'PFS CUC (mixed) RNA 1: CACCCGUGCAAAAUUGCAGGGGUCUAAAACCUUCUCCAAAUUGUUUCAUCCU RNA 2: GGGAAUGGAUCCACAUCUACGAAUUCUACAGGAUGAAACAAUUUGGAGAAGCUCAGAUCGGAAGAGCACACGU next
7.80
